molecular target: Proto-oncogene tyrosine-protein kinase receptor Ret [V804M] (Human, UniProt P07949, V804M); experiment: Inhibition of RET Family Kinases Activity
Sequence (P07949 29-1114 V804M limits assumed): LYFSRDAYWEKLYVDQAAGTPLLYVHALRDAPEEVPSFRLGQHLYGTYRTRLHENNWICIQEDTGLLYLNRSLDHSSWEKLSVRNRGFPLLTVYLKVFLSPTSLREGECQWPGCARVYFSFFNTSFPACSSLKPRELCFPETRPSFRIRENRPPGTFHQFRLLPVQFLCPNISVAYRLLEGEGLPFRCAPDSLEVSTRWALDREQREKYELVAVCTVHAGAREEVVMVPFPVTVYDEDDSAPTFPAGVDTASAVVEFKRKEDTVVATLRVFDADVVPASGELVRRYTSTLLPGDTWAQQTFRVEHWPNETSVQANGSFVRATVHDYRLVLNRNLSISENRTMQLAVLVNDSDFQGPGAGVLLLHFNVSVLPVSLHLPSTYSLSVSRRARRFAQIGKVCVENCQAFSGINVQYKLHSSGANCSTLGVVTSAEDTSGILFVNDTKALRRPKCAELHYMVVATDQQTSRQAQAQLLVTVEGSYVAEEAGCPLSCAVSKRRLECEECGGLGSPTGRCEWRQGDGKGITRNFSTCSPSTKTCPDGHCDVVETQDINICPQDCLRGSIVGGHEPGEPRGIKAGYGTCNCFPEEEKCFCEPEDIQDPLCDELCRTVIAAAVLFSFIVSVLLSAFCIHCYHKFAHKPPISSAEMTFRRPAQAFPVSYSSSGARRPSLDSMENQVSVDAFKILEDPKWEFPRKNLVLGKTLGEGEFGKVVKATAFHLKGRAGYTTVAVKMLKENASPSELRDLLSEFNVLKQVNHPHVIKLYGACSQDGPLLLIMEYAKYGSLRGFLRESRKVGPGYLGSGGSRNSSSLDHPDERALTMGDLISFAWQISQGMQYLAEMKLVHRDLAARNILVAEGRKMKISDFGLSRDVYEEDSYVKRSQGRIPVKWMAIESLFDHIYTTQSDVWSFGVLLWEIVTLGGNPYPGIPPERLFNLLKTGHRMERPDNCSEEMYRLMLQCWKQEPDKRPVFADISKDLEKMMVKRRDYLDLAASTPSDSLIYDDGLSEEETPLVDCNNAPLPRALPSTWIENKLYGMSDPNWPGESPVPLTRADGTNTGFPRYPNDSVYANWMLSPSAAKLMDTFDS
IC50 less than 30 nM is rule met; IC50 greater than or equal to 30 nM is rule not met.

molecule="COc1ccc(CN2C3CC2CN(c2ccc(-c4cc(N5CC6CC(C5)N6C)cn5ncc(C#N)c45)cn2)C3)cn1 [US20230322769, Compound 17]" tested_system="Proto-oncogene tyrosine-protein kinase receptor Ret [V804M] (Human, UniProt P07949, V804M)" classification="rule met"
molecule="COc1ccc(CN(C)CCN(C)c2ccc(-c3cc(-c4cnn(C)c4)cn4ncc(C#N)c34)cn2)cn1 [US20230322769, Compound 17-a]" tested_system="Proto-oncogene tyrosine-protein kinase receptor Ret [V804M] (Human, UniProt P07949, V804M)" classification="rule not met"
molecule="COc1ccc(CN2C3CC2CN(c2ccc(-c4cc(NCC(C)(C)O)cn5ncc(C#N)c45)cn2)C3)cn1 [US20230322769, Compound 78]" tested_system="Proto-oncogene tyrosine-protein kinase receptor Ret [V804M] (Human, UniProt P07949, V804M)" classification="rule met"
molecule="COc1ccc(CN2C3CC2CN(c2ccc(-c4cc(N5CCOCC5)cn5ncc(C#N)c45)cn2)C3)cn1 [US20230322769, Compound 65]" tested_system="Proto-oncogene tyrosine-protein kinase receptor Ret [V804M] (Human, UniProt P07949, V804M)" classification="rule met"
molecule="COc1ccc(C(=O)N2CCN(c3ccc(-c4cc(-c5cc6n(n5)CCC6)cn5ncc(C#N)c45)cn3)CC2)cn1 [US20230322769, Compound 68]" tested_system="Proto-oncogene tyrosine-protein kinase receptor Ret [V804M] (Human, UniProt P07949, V804M)" classification="rule met"
molecule="COc1ccc(CN2C3CC2CN(c2ccc(-c4cc(N5CCN(C)C(=O)C5)cn5ncc(C#N)c45)cn2)C3)cn1 [US20230322769, Compound 89]" tested_system="Proto-oncogene tyrosine-protein kinase receptor Ret [V804M] (Human, UniProt P07949, V804M)" classification="rule met"
molecule="COc1ccc(CN2CCC(n3cc(-c4cc(-c5cnn(C)c5)cn5ncc(C#N)c45)cn3)CC2)cn1 [US20230322769, Compound 43]" tested_system="Proto-oncogene tyrosine-protein kinase receptor Ret [V804M] (Human, UniProt P07949, V804M)" classification="rule not met"
molecule="COc1ccc(CN2CCCN(c3ccc(-c4cc(-c5cc6n(n5)CCC6)cn5ncc(C#N)c45)cn3)CC2)cn1 [US20230322769, Compound 70]" tested_system="Proto-oncogene tyrosine-protein kinase receptor Ret [V804M] (Human, UniProt P07949, V804M)" classification="rule not met"
molecule="COc1ccc(CN2CCN(c3nc(-c4cc(-c5cnn(C)c5)cn5ncc(C#N)c45)cs3)CC2)cn1 [US20230322769, Compound 39]" tested_system="Proto-oncogene tyrosine-protein kinase receptor Ret [V804M] (Human, UniProt P07949, V804M)" classification="rule not met"
molecule="COc1ccc(CN2C3CC2CN(c2ccc(-c4cc(N5CC6CC(C5)N6)cn5ncc(C#N)c45)cn2)C3)cn1 [US20230322769, Compound 16]" tested_system="Proto-oncogene tyrosine-protein kinase receptor Ret [V804M] (Human, UniProt P07949, V804M)" classification="rule met"
molecule="COc1ccc(CN2C3CC2CN(c2ccc(-c4cc(N5CCP(C)(=O)CC5)cn5ncc(C#N)c45)cn2)C3)cn1 [US20230322769, Compound 20]" tested_system="Proto-oncogene tyrosine-protein kinase receptor Ret [V804M] (Human, UniProt P07949, V804M)" classification="rule met"
